B1: TPR 5TU (parent)
chain: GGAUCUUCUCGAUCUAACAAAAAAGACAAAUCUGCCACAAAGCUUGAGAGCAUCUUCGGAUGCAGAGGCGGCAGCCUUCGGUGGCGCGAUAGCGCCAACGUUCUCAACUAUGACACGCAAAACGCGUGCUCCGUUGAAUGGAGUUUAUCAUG

Variants of: B1
Assay: polymerase ribozyme fitness, log enrichment relative to wild type (log ratio); higher = more active; in vitro selection for triplet polymerase activity
Fewer inactive variants are shown than the library holds.
Please note: yes applies when polymerase ribozyme fitness (log ratio) is -3 or greater, and no applies otherwise.

U53C C57A C95U A98G U104A; yes
A24U A40C U55A A60G C75G C96G U104G; no

--- query ---
Threshold query (polymerase ribozyme fitness (log ratio) >= -3) on C5G G84U
yes
